Experiment: binders of probe aFGF2 on microarray, primary screen, stem cell growth factor project, biochemical, small-molecule microarray, fluorescence 635/667 (AID 1067);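 further: measures binding of biotinylated aFGF2 protein to printed compounds on slides; z-score merges feature fluorescence and signal-to-noise across triplicate slides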
Settings: higher = more signal
ENDPOINT: composite z-score

{"COMPOUND": "CCOC(=O)C[C@H]1[C@H](OC(=O)c2ccc(-c3ccccc3)cc2)[C@@H](NC(=O)Cc2ccc(OC)cc2)c2cc(OCCCO)ccc2N1C(=O)c1ccccc1", "VALUE_OBSERVED": -0.0316}
{"COMPOUND": "O=C1NC(=O)C2C1C=CC(C(O)c1cccs1)N2Nc1ccc(Cl)cc1Cl (centres undefined)", "VALUE_OBSERVED": -0.0647}
{"COMPOUND": "CC(=O)NCCCC[C@@H]1NC(=O)[C@H]2C[C@@H](C(=O)NCCCCCCNC(=O)CS)[C@@H](c3ccc(O)cc3)N2C1=O", "VALUE_OBSERVED": -0.0049}
{"COMPOUND": "COC(=O)[C@@]1(Cc2ccc(OC)cc2)[C@H]2c3cc(C(=O)N4CCCC4)n(CCN4CNCC4=O)c3C[C@H]2CN1C(=O)c1ccccc1", "VALUE_OBSERVED": 0.797}

* * *

System: Fibrinogen (Alexa647-labelled)
Experiment: fibrinogen binders on compound microarrays, profiling panel, artefact control for SMM control-protein annotation, biochemical, small-molecule microarray, 635/667 nm fluorescence (AID 1131);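 further: z-score merges 667 nm fluorescence with per-spot signal-to-noise over triplicate slides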
Conditions: fibrinogen-A647 binding fluorescence, higher = more signal
Recorded composite z-score, one value per entry.
ENDPOINT: composite z-score

{"COMPOUND": "COCCOC(=O)N1C(=O)[C@@]2(c3cc(C#CCNC(N)=O)ccc31)[C@H](C(=O)Nc1nc3ccccc3s1)[C@H]1C(=O)O[C@H](c3ccccc3)[C@H](c3ccccc3)N1[C@@H]2c1ccc(OCCO)cc1", "VALUE_OBSERVED": 0.901}
{"COMPOUND": "O=C(NC1CC1)[C@@H]1c2ccccc2C(=O)N(Cc2ccccc2Cl)[C@H]1c1ccc(CO)cc1", "VALUE_OBSERVED": 0.57}
{"COMPOUND": "C=CC[C@@]1(C(=O)NCCN2CCOCC2)N=C(c2ccc(OCCCO)cc2)O[C@@H]1c1ccccc1N=[N+]=[N-]", "VALUE_OBSERVED": 0.161}
{"COMPOUND": "O=C1C2C=CC(C(O)Cc3ccccc3)N(n3cnnc3)C2C(=O)N1Cc1ccccc1 (stereo not drawn)", "VALUE_OBSERVED": 0.573}
{"COMPOUND": "COCCOC(=O)N1C(=O)[C@@]2(c3cc(C#Cc4ccc(OC)cc4)ccc31)[C@H](c1ccccc1OCCO)N1[C@H](c3ccccc3)[C@H](c3ccccc3)OC(=O)[C@H]1[C@@H]2C(=O)NC[C@H](O)c1ccccc1", "VALUE_OBSERVED": 0.782}
{"COMPOUND": "CCCCCCc1nc(-c2ccc(OC)nc2)cc2c1[Si](C(C)C)(C(C)C)O[C@H]2c1ccccc1", "VALUE_OBSERVED": -0.51}
{"COMPOUND": "C=CCC(OC(C)=O)[C@@H]1[C@@H](N(Cc2ccc(-c3ccccc3)cc2)C(=O)c2cccc3ccccc23)c2cc(OCCCO)ccc2N1C(=O)c1ccc(-c2ccccc2)cc1 (stereo partly drawn)", "VALUE_OBSERVED": 0.56}
{"COMPOUND": "COc1cc2c(cc1O)C(c1cccs1)N(C)CC2 (stereo not drawn)", "VALUE_OBSERVED": -0.861}
{"COMPOUND": "O=C1O[C@@H](c2ccccc2)[C@@H](c2ccccc2)N2[C@@H](c3ccccc3OCCO)[C@]3(C(=O)Nc4ccc(C#CC5=CCCCC5)cc43)[C@@H](C(=O)N3CCCCCCC3)[C@H]12", "VALUE_OBSERVED": 0.487}
{"COMPOUND": "CCOC(=O)C[C@H]1[C@H](OC(=O)c2ccc(C(=O)c3ccccc3)cc2)[C@@H](NC(=O)CC(C)C)c2cc(OCCCO)ccc2N1C(=O)c1ccc2ccccc2n1", "VALUE_OBSERVED": 0.989}
{"COMPOUND": "CCCCCN1CC=CC23O[C@@H]4/C=C\\CCC(C)OC(=O)C4[C@H]2C(=O)N(C(C)CO)[C@@H]3C1=O (stereo partly drawn)", "VALUE_OBSERVED": -0.925}
{"COMPOUND": "CO[C@H]1O[C@H](CO)[C@@H](OC(=O)Nc2ccc(C(F)(F)F)cc2)[C@H](OC(=O)Nc2ccc3c(c2)OCO3)[C@@H]1OC(=O)Nc1ccc2c(c1)OCO2", "VALUE_OBSERVED": 0.607}
{"COMPOUND": "CCOC(=O)C[C@H]1[C@H](OC(=O)c2ccc(C(=O)c3ccccc3)cc2)[C@@H](NC(=O)c2ccc3ccccc3c2)c2cc(OCCCO)ccc2N1C(=O)Cc1ccc(OC)cc1", "VALUE_OBSERVED": 0.424}
